- measuredTarget: Squalene synthase (Rattus norvegicus)
- Sequence (Q02769 whole entry): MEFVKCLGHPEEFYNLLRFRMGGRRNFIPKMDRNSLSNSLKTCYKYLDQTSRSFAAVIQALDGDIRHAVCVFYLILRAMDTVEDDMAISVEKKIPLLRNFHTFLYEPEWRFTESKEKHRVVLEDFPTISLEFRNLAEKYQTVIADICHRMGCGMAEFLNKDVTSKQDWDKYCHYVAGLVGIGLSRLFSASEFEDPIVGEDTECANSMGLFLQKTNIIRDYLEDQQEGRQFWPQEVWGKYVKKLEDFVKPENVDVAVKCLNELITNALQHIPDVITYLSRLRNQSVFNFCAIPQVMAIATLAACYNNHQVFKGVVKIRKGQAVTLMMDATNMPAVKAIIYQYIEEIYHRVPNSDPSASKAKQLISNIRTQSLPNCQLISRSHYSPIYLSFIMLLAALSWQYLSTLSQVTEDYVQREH
Reported pIC50 values for the following compounds.
// returns pIC50 (minus log10 of molar concentration), number only

Solved entries:
{"compound": "CC(C)=CCC/C(C)=C/CC/C(C)=C/COC1CN2CCC1CC2 (stereo not given)", "measuredTarget": "Squalene synthase (Rattus norvegicus)", "measurementType": "pIC50", "measuredResult": 7.15}
{"compound": "O=C(NC1CN2CCC1CC2)c1ccc(-c2ccccc2)cc1 (stereo not given)", "measuredTarget": "Squalene synthase (Rattus norvegicus)", "measurementType": "pIC50", "measuredResult": 5.92}

Request: Look up pIC50: c1ccc(-c2ccc(CC3CN4CCC3CC4)cc2)cc1 (stereo not given)
Result: 7.57

====

- measuredTarget: Squalene synthase (Rattus norvegicus, UniProt Q02769)
- Sequence (Q02769 whole entry): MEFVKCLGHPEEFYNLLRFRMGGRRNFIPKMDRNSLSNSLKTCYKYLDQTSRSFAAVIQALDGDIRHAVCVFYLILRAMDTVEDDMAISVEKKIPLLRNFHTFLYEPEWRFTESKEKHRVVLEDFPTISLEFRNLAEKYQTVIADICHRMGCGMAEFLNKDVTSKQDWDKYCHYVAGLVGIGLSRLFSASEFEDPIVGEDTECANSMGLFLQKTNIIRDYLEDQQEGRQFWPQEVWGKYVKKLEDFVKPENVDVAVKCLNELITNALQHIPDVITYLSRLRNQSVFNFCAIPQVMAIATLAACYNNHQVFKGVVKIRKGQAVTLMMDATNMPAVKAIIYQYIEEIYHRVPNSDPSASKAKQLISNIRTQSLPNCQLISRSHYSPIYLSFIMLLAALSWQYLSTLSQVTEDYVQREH
Reported pIC50 values for the following compounds.
// returns pIC50 (minus log10 of molar concentration), number only

{"compound": "C(=C/C1CN2CCC1CC2)/c1ccc(-c2ccccc2)cc1 (centres undefined)", "pIC50": 6.24}
{"compound": "OC1(c2ccc(-c3ccccc3)cc2)CN2CCC1CC2 (stereo in doubt; 2)", "pIC50": 7.80}

The record that follows has no pIC50 shown yet.
Request: Look up pIC50: C(=C\C1CN2CCC1CC2)/c1ccc(-c2ccccc2)cc1 (centres undefined)
Result: 8.40

====

Reported IC50 values for the following compounds.
- measuredTarget: Squalene synthase (Rattus norvegicus, UniProt Q02769)
- assayInfo: In vitro inhibition against rat microsomal squalene synthase (SS)
Just the number in nM, nothing appended.

{"compound": "OC1(c2cnc(-c3ccccc3)s2)CN2CCC1CC2 (stereo unspecified)", "measurementType": "IC50", "scaleUnit": "nM", "measuredResult": 60}
{"compound": "CC(C)=CCC/C(C)=C/CC/C(C)=C/COCC1(O)CN2CCC1CC2 (stereo unspecified)", "measurementType": "IC50", "scaleUnit": "nM", "measuredResult": 60}
{"compound": "OC1(c2ccc(-c3cccnc3)cc2)CN2CCC1CC2 (stereo unspecified)", "measurementType": "IC50", "scaleUnit": "nM", "measuredResult": 270}
{"compound": "OC(c1ccc(-c2ccccc2)cc1)C1CN2CCC1CC2 (stereo in doubt; 33)", "measurementType": "IC50", "scaleUnit": "nM", "measuredResult": 2500}
{"compound": "OC1(c2ccc(-c3ccc(F)cc3)cc2)CN2CCC1CC2 (stereo unspecified)", "measurementType": "IC50", "scaleUnit": "nM", "measuredResult": 18}
{"compound": "OC1(c2ccc(-c3cccs3)cc2)CN2CCC1CC2 (stereo unspecified)", "measurementType": "IC50", "scaleUnit": "nM", "measuredResult": 40}
{"compound": "c1ccc(-c2ccc(C3CN4CCC3CC4)cc2)cc1 (stereo unspecified)", "measurementType": "IC50", "scaleUnit": "nM", "measuredResult": 11}
{"compound": "OC1(c2cccc(-c3ccccc3)c2)CN2CCC1CC2 (stereo unspecified)", "measurementType": "IC50", "scaleUnit": "nM", "measuredResult": 60}

Request: Look up IC50: OC1(c2ccc(-c3ccccc3)cc2)CN2CCC1CC2 (stereo in doubt; 2a(+))
Result: 7

Request: Look up IC50: OC1(COc2ccc(-c3ccccc3)cc2)CN2CCC1CC2 (stereo unspecified)
Result: 13

Request: Look up IC50: OC1(c2ccc(-c3cnc4ccccc4c3)cc2)CN2CCC1CC2 (stereo unspecified)
Result: 200
